Test: Stability in mouse plasma, peptides 100 uM (Example 14)
Format: in vitro ADME
Conditions: pooled mouse plasma; mouse plasma 37° C.; peptide 100 uM; 60 min; read-out: % Remaining at Each Time Point: 60 min
readout type: remaining at 1 h, 100 uM (%)

Some solved cases for reference:
substance | remaining at 1 h, 100 uM / %
H-MRWQEMGYIFYPRK-OH [compound 46] | 31.4
H-MRWQEMGYIFYPRK(Ac)LR-OH [compound 69] | 19.3
H-MRWQEMQYIFYPRALR-OH [compound 219] | 41.3
H-MRWQEMQYIFYPR-OH [compound 209] | 38
H-MRWQEMNYIFYPR-OH [compound 208] | 48.9
H-WQEMGYIFYPRKLR-OH [compound 39] | 54.9

P = H-MRWQEMGYIFYPRKLR-OH [compound 2]
Q = H-RWQEMGYIFYPRALR-OH [compound 215]
R = H-MRWQEMGYIFYPAKLR-OH [compound 18]
S = H-MRWQEAGYIFYPRKLR-OH [compound 11]
Order the items by recorded remaining at 1 h, 100 uM; the first position goes to the largest value. Returns: the labels listed in the requested order.
Q, R, S, P

----------
Assay: Stability in mouse plasma, peptides 10 uM (Example 15)
Type: in vitro ADME
Details: pooled mouse plasma; mouse plasma 37° C.; peptide 10 uM; 120 min; read-out: % Remaining at Each Time Point: 120 min
Peptide text beside a SMILES is read from it.
readout type: remaining at 2 h, 10 uM (%)
Write the value in % as a bare number.

Need remaining at 2 h, 10 uM, item CC[C@H](C)[C@H](NC(=O)[C@H](Cc1ccc(O)cc1)NC(=O)[C@H](CC(N)=O)NC(=O)[C@H](CCSC)NC(=O)[C@H](CCC(=O)O)NC(=O)[C@H](CCC(N)=O)NC(=O)[C@H](Cc1c[nH]c2ccccc12)NC(=O)[C@H](CCCNC(=N)N)NC(=O)[C@@H](C)N)C(=O)N[C@@H](Cc1ccccc1)C(=O)N[C@@H](Cc1ccc(O)cc1)C(=O)N1CCC[C@H]1C(=O)N[C@@H](CCCNC(=N)N)C(=O)O [compound 288] (HELM PEPTIDE1{[dA].R.W.Q.E.M.N.Y.I.F.Y.P.R}$$$$V2.0)
69.2

----------
Assay: Stability in monkey plasma (Example 16)
Assay type: in vitro ADME
Details: Monkey plasma 37° C.; peptide 10 uM; 180 min; read-out: % Remaining at Each Time Point: 180 min
readout type: remaining at 3 h, 10 uM (%)

substance | unit abbrev | remaining at 3 h, 10 uM
H-RWQEMNYIFYPR-OH [compound 210] | % | 77.9

A = H-MRWQEMNYIFYPR-OH [compound 208]
B = H-MRWQEMGYIFYPRKLR-OH [compound 2]
Decide: A or B , by lowest recorded remaining at 3 h, 10 uM. Your answer should be the label of the entry you select.
B

----------
Assay: Stability in mouse plasma, peptides 100 uM (Example 14)
Assay type: in vitro ADME
Details: pooled mouse plasma; mouse plasma 37° C.; peptide 100 uM; 30 min; read-out: % Remaining at Each Time Point: 30 min
readout type: remaining at 0.5 h, 100 uM (%)

Look over these answered cases.
substance | readout type | unit abbrev | experimental value
H-MRWQEMGYIFYPRKLA-OH [compound 21] | remaining at 0.5 h, 100 uM | % | 31
H-MRWQEMGYIFYPAKLR-OH [compound 18] | remaining at 0.5 h, 100 uM | % | 24
H-MRWQEMGYIFYPRKLR-OH [compound 2] | remaining at 0.5 h, 100 uM | % | 14.8

A = H-MRWQEMQYIFYPR-OH [compound 209]
B = H-MRWQEMGYIFYPRK-OH [compound 46]
Which numeric remaining at 0.5 h, 100 uM is bigger, that of A or that of B ? Reply with the label of the item you choose.
A
(A: 38.9%, B: 26.4%)

A = H-MRWQEMGYIFYPRALR-OH [compound 19]
B = H-RWQEMGYIFYPRQLR-OH [compound 217]
Sorting by remaining at 0.5 h, 100 uM in descending order, would A or B appear first? Could you answer with the label of the item you picked?
B

Ref: patent US11753445B2
